# EXPERIMENTAL_DETAILS: Kinetic parameter Vmax at pH 7.4 and 37 degree Centigrade
# Assay type: ADME
ASSAY_METRIC: Vmax (µmol/min/unit)

1. CNc1ncnc2c1ncn2C1OC(CO)CC1F (centres undefined) = 0.00055
2. Nc1ncnc2c1ncn2[C@@H]1O[C@H](CO)C[C@@H]1F = 0.23
3. Nc1ncnc2c1ncn2[C@H]1CC[C@@H](CO)O1 = 1.32
4. OCC1CC(F)C(n2cnc3c(Cl)ncnc32)O1 (centres undefined) = 0.026

###

# EXPERIMENTAL_DETAILS: Partition coefficient (logP)
# Type: physicochemical
# DETAILS: octanol/water
ASSAY_METRIC: logP

1. CNc1ncnc2c1ncn2C1OC(CO)CC1F (configuration not stated) = 0.27
2. Cc1cn([C@H]2C[C@H](N=[N+]=[N-])[C@@H](CO)O2)c(=O)[nH]c1=O [ZIDOVUDINE] = 0.05
3. Nc1ncnc2c1ncn2[C@H]1CC[C@@H](CO)O1 = -0.29
4. OCC1CC(F)C(n2cnc3cncnc32)O1 (configuration not stated) = -0.4
5. Nc1ccn([C@H]2CC[C@@H](CO)O2)c(=O)n1 [ZALCITABINE] = -1.33
6. Nc1c2ncn(C3OC(CO)CC3F)c2nc[n+]1[O-] (configuration not stated) = -1.38
7. OCC1CC(F)C(n2cnc3c(Cl)ncnc32)O1 (configuration not stated) = 0.32
8. OCC1CC(F)C(n2cnc3c(O)ncnc32)O1 (configuration not stated) = -1.21
9. CNc1nc(C)nc2c1ncn2[C@@H]1O[C@H](CO)C[C@@H]1F = 0.64
10. Cc1nc2c(N)ncnc2n1C1OC(CO)CC1F (configuration not stated) = 0.1
11. Cc1nc(N)c2ncn([C@@H]3O[C@H](CO)C[C@@H]3F)c2n1 = 0.12
12. O=C(Nc1ncnc2c1ncn2C1OC(CO)CC1F)c1ccccc1 (configuration not stated) = 0.73

###

# EXPERIMENTAL_DETAILS: Kinetic parameter relative rate measured at 50 uM at pH 7.4 and 37 degree Centigrade
# Assay type: ADME
# DETAILS: pH 7.4, 50 µM
Quick reference: Relative rate of the listed items.
ASSAY_METRIC: Relative rate

1. OCC1CC(F)C(n2cnc3c(Cl)ncnc32)O1 (centres undefined) = 0.06
2. CNc1ncnc2c1ncn2C1OC(CO)CC1F (centres undefined) = 0.04
3. Nc1ncnc2c1ncn2[C@H]1CC[C@@H](CO)O1 = 100
4. Nc1ncnc2c1ncn2[C@@H]1O[C@H](CO)C[C@@H]1F = 6
